Test system: SF-295 CNS
Experiment: NCI-60 one-dose screen, 48 h (100 = growth as untreated, 0 = no growth, -100 = all killed)
Details: 10 µM unless noted
Description: Cells are grown in 96 well plates and exposed to the test compound for 48 hours. Compounds are tested at a single concentration, which is 10^-5 M for most compounds. The reported endpoint is percent growth (GI% or GIPRCNT), where numbers from 0 - 100% represent growth inhibition, and numbers from -100% - 0 represent cell death. For example, a value of 40 represents 60% growth inhibition. A value of 0 means no net growth occurred over the course of the experiment. […]
This is part of a sample that, as a whole, favours compounds with a hit. Of some 83,000 tested, about 20% had one in any assay.
Please respond with criterion met when measured growth is strictly beneath 80%, and with criterion not met in all other cases.

molecule	categoryLabel
CC/C(Cc1ccccc1)=C(\c1ccc(OCCCN(C)C)cc1)c1ccc(OC(=O)NCc2ccccc2)cc1	criterion not met
CO[C@H](C(=O)[C@@H](O)[C@@H](C)O)[C@@H]1Cc2cc3cc(O[C@H]4C[C@@H](O[C@H]5C[C@@H](O)[C@H](O)C(C)O5)[C@H](O)C(C)(O)O4)cc(O)c3c(O)c2C(=O)[C@H]1O[C@H]1C[C@@H](O[C@H]2C[C@@H](O[C@H]3C[C@@H](OC)[C@H](O)C(C)O3)[C@@H](O)C(C)O2)[C@H](O)C(C)O1 (stereo partly specified)	criterion met
COc1ccc(/C(C)=C(\c2ccc(Cl)cc2)c2ccc(OCCN3CCCCC3)cc2)cc1	criterion met
Cc1ccc(C(=O)c2ccc(CC(=O)NN3C(=O)c4ccccc4C3=O)n2C)cc1	criterion not met
COc1ccc(CCN(CC(=O)N(CC(N)=O)C2CCC[C@@H]2OCc2ccccc2)C(=O)CN(C(=O)CN(CCc2ccc(Cl)cc2)C(=O)CN(C(=O)CN(C)Cc2ccccc2F)[C@H](C)C2CCCCC2)[C@H](C)C2CCCCC2)cc1OC (stereo partly specified)	criterion met
COc1cc(OC)c(/C=C/C(=O)c2c(O)cc(OC)c(C3CCN(C)CC3)c2OC)c(OC)c1	criterion met
O=C(NNC(=O)c1ccc(NC(=O)c2ccccn2)cc1)Nc1ccc2ccccc2c1	criterion not met
Cc1nn(-c2cc(NC3CCC(O)CC3)c3c(=O)[nH]c(CCC(F)(F)F)cc3c2)c2c1C(=O)CC(C)(C)C2 (stereo unspecified)	criterion met
CC1=C(CCC(C)NCc2ccc(OCCCN3CCCCC3)cc2)C(C)(C)CCC1 (stereo unspecified)	criterion met
Nc1nc2c(c3ncccc13)C(c1cccc(Cl)c1)Cc1ncccc1-2 (stereo unspecified)	criterion met
Cc1ccc(S(=O)(=O)N2CCC(=O)c3ccccc32)cc1	criterion not met
COc1cccc(C(=O)NNc2nc(Cl)nc(Cl)n2)c1	criterion not met
O=C(Nc1ccc(Cl)cc1)Oc1c(Cl)c(Cl)c(Cl)c(Cl)c1Cl	criterion not met
CN(C)c1ccc(-c2ccc3c(c2)c(-c2ccccc2)nc(=O)n3C)cn1	criterion met
CCN1C(=O)N(CC)C2C1NC(=S)N2/N=C/c1ccc(OC)cc1 (stereo unspecified)	criterion met
COc1cc(OC)c2sc(-c3ccc(-n4cncc4-c4cc(OC)c(OC)c(OC)c4)cc3)nc2c1	criterion met

Sourced from PubChem BioAssay (NCI)
